# System: A498 renal
# assay summary: NCI-60 one-dose screen, 48 h (100 = growth as untreated, 0 = no growth, -100 = all killed)
# study conditions: 10 µM unless noted
# Experimental: Growth inhibition of the A498 human tumor cell line is measured as a screen for anti-cancer activity. Cells are grown in 96 well plates and exposed to the test compound for 48 hours. Compounds are tested at a single concentration, which is 10^-5 M for most compounds. The reported endpoint is percent growth (GI% or GIPRCNT), where numbers from 0 - 100% represent growth inhibition, and numbers from -100% - 0 represent cell death. For example, a value of 40 represents 60% growth inhibition. […]
Compounds without any hit were thinned out: in the full panel of roughly 83,000, 20% have a hit.
# growth annotations
Express your answer in %, writing the number without its unit.

Sample answers from the record:
[[record]]
compound = "COc1ccc2c(c1)sc1nc(-c3ccc(N(C)C)cc3)cn12"
study_target = "A498 renal"
measure_unit = "%"
result = 111

[[record]]
compound = "O=C(Nc1ccc(Cl)cc1)Nc1ccccc1CNc1nc(Nc2ccc(OCCN3CCCC3)cc2)ncc1Cl"
study_target = "A498 renal"
measure_unit = "%"
result = 75.6


Query :: Answer with the recorded growth of Cc1ccc(C(NC(=O)c2ccccc2)c2ccc3cccnc3c2O)cc1 (configuration not stated) only.
Result :: 24.9

Query :: Specify measured growth for CSc1nc2nc3c(nc2c(=O)n1C)C(=O)c1ccccc1C3=O .
Result :: -75.3

Query :: Give a short answer stating reported growth for O=c1[nH]c(SCc2ccccc2)nc2nc(Nc3ccc(NC(=S)Nc4ccccc4)cc3)nc(-c3ccc(O)cc3O)c12 .
Result :: 108

Query :: Please supply the value of reported growth for the item N#Cc1c(-c2ccc(F)cc2)n2c(nc1=O)SC(=O)C2=O
Result :: 70

Query :: Return value of growth for input N#Cc1c(NC(=O)c2ccco2)[n+]([O-])c2ccccc2[n+]1[O-] , no commentary.
Result :: 117

Query :: Fill in reported growth for this entry: CCCCN=C(N)c1ccc(OCCSCCOc2ccc(C(N)=NCCCC)cc2)cc1
Result :: 57.4

Query :: Identify growth associated with the compound C/C=C(/C(=C/C)c1ccc(O)cc1)c1ccc(O)cc1
Result :: 31.4

Query :: // fetch growth given entry COc1cc(C(=O)c2cc3c(cc2C)OCO3)cc(OC)c1OC
Result :: -2.13

Query :: Please indicate growth recorded for CCSc1nc(-c2ccc(F)cc2)c(C#N)c(=O)[nH]1
Result :: 112

Query :: Determine from records and report growth for CCCCCCCCCCCCCCCCCC1=NC(C)(CO)CO1 (configuration not stated)
Result :: 104

Query :: Input COc1ccc2nc(-c3ccc(Cl)cc3)cc(-c3nnc(SCC(=O)Nc4ccc(C(C)=O)cc4)n3-c3ccccc3)c2c1 , output reported growth.
Result :: 100

Query :: State its growth: Cc1ccc(NC(=O)c2sc3nc4c(cc3c2N)C(=O)CCC4)cc1
Result :: -3.97

Query :: Could you please provide reported growth for COc1ccc(/C=C2/SC(=Nc3c(C)nn(-c4ccccc4)c3N)NC2=O)cc1 ? Thanks!
Result :: -54.5

Query :: Given the compound Cc1[nH]c(=O)[nH]c(=O)c1CCSSCCc1c(C)[nH]c(=O)[nH]c1=O , write its reported growth.
Result :: 107

Query :: Provide growth value for the following compound: O=C(Oc1ccccc1)C(Br)C(Br)c1ccccc1 (configuration not stated)
Result :: 91.3

Origin of the recorded values: PubChem BioAssay (NCI)
